Experiment: growth inhibitors of H69AR lung tumor, primary screen, human, duplicate replicates (AID 580);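 note: 100% = mean luminescence of untreated wells and 0% = no signal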
Conditions: H69AR lung tumor cells viability, ATP luminescence, 72 h; at 10 µM; stronger effect = lower value
Active and inactive are the calls of the source.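 Rule for the calls: active = viability at or under a set limit in both replicates, limit being median viability minus 3 SD (cut at about 48% in these data, passing the limit was not always enough); inconclusive = at or under the limit in just one replicate; inactive = at or above the limit in both replicates.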
assay endpoint: viability

compound	assay endpoint	result
O=C(Oc1ccc2c(c1)CCC2)N1CCOCC1	viability	95.6% (inactive)
COC(=O)c1sc(S(=O)(=O)Nc2ccc3cn[nH]c3c2)c(C(=O)OC)c1C	viability	78.2% (inactive)
Cc1cc(-c2ccccc2)c2nncn2n1	viability	89.9% (inactive)

Kindly give each listed record's viability.
1. CCN1C(=O)CC(C(=O)Nc2ccc(F)cc2)SC1=Nc1ccc2c(c1)OCO2 (stereo not drawn)
2. O=C(Cn1nnc(-c2cc(Cl)ccc2-n2cnnn2)n1)N1CCCc2ccccc21
3. COC(=O)c1c(NC(=O)c2ccc(S(=O)(=O)N3CCOCC3)cc2)sc2c1CCN(C)C2
4. CN(Cc1ccccc1)C(=O)c1ccc2c(c1)OCO2
5. CN(Cc1cccs1)C(=O)CCc1ccc(S(=O)(=O)N2CCOCC2)cc1
6. COc1ccc(NC(=O)CCCN2C(=O)C3C4C=CC(C4)C3C2=O)c(OC)c1 (stereo not drawn)
7. CC(C)c1ccc(S(=O)(=O)N2CCN(C(=O)c3cccc(F)c3)CC2)cc1
8. CC1CCN(S(=O)(=O)c2cn(CC(=O)N3CCN(C)CC3)c(=O)c3ccccc23)CC1

1. 86.4% (inactive)
2. 96.4% (inactive)
3. 90% (inactive)
4. 108% (inactive)
5. 87.4% (inactive)
6. 102% (inactive)
7. 88.3% (inactive)
8. 97.4% (inactive)

Report viability for every entry below.
1. COc1ccc(N(C(=O)c2ccco2)S(=O)(=O)c2cc(OC)ccc2OC)cc1
2. Cc1ccc(C2Nc3ccccc3-c3nc4ccccc4n32)o1 (stereo not drawn)
3. CCOC(=O)c1ccc(NS(=O)(=O)c2cccc3nsnc23)cc1
4. CCCCn1c(NCCC)nc2c1c(=O)[nH]c(=O)n2C

["72.2% (inactive)", "38.3% (active)", "95.9% (inactive)", "93.7% (inactive)"]

State recorded viability for all listed compounds.
1. COc1ccccc1-c1cn[nH]c(=S)n1
2. N#CC1=C(N)OC(c2ccccc2)=C(C#N)C1c1ccc2c(c1)OCO2 (stereo not drawn)
3. CCCC(=O)Nc1ccc2oc(-c3cccnc3)nc2c1
4. O=C(NCc1cccs1)c1cc2c(s1)CCCC2
5. Cn1c(=O)cc(OCC(=O)N2CCN(c3cccc(C(F)(F)F)c3)CC2)c2ccccc21
6. COc1ccccc1OC(=O)c1ccc2nsnc2c1
7. Cc1cnn(Cc2ccccc2)c1N

1: 96.1% (inactive); 2: 93.8% (inactive); 3: 88.5% (inactive); 4: 97.6% (inactive); 5: 75.3% (inactive); 6: 100% (inactive); 7: 88.7% (inactive)

Quick one: viability for CCCCNC(=O)c1nc2ncc(Br)cn2n1 ?
85.4% (inactive)

Origin of values: PubChem BioAssay
